- test: Dose range finding study by intravenous route with toxicokinetics
- Assay type: in vivo, beagle dogs
- cond: male, beagle, dog, plasma, iv; Day 1; 0.025 mg/kg i.v.; mean n = 2; read-out: Vss
endpoint.name: Vd (L/kg)
Note: unit L/kg is implicit; provide only the numeric part.

Prompt: Name the recorded Vd of the molecule listed here: CC(C)C[C@@H]1NC(=O)[C@H](Cc2cccc(NC(=O)CCCS(N)(=O)=O)c2)NC(=O)[C@H](CC(=O)O)NC(=O)[C@H]2CCCN2C(=O)[C@H](CCC(=O)O)NC(=O)[C@@H](NC(=O)[C@H](CCC(N)=O)NC(=O)CN2CCN(C(=O)CN3CCN(CC(=O)O)CCN(CC(=O)O)CCN(CC(=O)O)CC3)CC2)CSCc2cccc(c2)CSC[C@@H](C(N)=O)NC(=O)[C@H](CO)NC(=O)[C@H](Cc2c[nH]c3ccccc23)NC(=O)[C@H]([C@@H](C)O)NC1=O
Completion: 0.22

Data provenance: patent US20250339569A1
